As shown below, each of these compounds has a reported z-score value.
# protocol-text: resazurin metabolic signal in HepG2 cells – cell-based, resazurin fluorescence, 24 h, PK04 Diversity Set, profiling panel (AID 1172); note: test concentration not given here
# assay-setup: HepG2 viability, higher = more signal
assay-metric: z-score

compound: CO[C@H]1O[C@H](CO)[C@@H](OC(=O)Nc2ccc(Br)cc2)[C@@H]2OC(=O)[C@H](Cc3cccc(Br)c3)C/C=C/C[C@@H](Cc3cccc(Br)c3)C(=O)O[C@@H]12
observed: -1.34
--
compound: CO[C@H]1O[C@H](CO)[C@@H](OC(=O)Nc2cccc(F)c2)[C@H](OC(=O)Nc2ccccc2)[C@H]1OC(=O)Nc1ccccc1
observed: -2.71
--
compound: CCCCN1CC=CC23O[C@@H]4/C=C\CCCOC(=O)C4[C@H]2C(=O)N(CCCO)[C@@H]3C1=O (some centres undefined)
observed: 0.426
--
compound: O=C1C2C=CC(C(O)c3ccc4c(c3)OCO4)N(Nc3ccc([N+](=O)[O-])cc3)C2C(=O)N1c1ccccc1 (centres undefined)
observed: -0.415

====

# protocol-text: viability profiling in RPMI8226 myeloma cells – cell-based, resazurin fluorescence, basal, 24 h, PK04 Diversity Set, profiling panel (AID 1180);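 note: RPMI8826 multiple myeloma cell line at 5000 cells per well; test concentration not given here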
# assay-setup: higher = more signal
assay-metric: z-score

molecule: O=C(CS)NCCCCCNC(=O)[C@H]1C[C@H]2C(=O)NCC(=O)N2[C@H]1c1ccc(O)cc1
observed: 1.21
//
molecule: COC(=O)C[C@H]1O[C@@H](CCc2ccccc2)[C@@H](C)[C@@H]1[Si](C)(C)c1ccc(OC)cc1
observed: -0.206
//
molecule: CCCCC(=C=CC[C@H](O)c1cccc(OCCO)c1)C[C@H](O)c1ccccn1
observed: 1.83
//
molecule: O=C(O)C1N=C(c2ccc(OCCCO)cc2)N(c2ccccc2)O1 (stereo not drawn)
observed: -0.219
//
molecule: COc1ccccc1CN1C(=O)c2ccccc2[C@@H](C(=O)NCc2ccccc2)[C@@H]1c1ccc(CO)cc1
observed: 0.427
//
molecule: C=CC[C@@]1(C(=O)N2CCCCC2)N=C(c2ccc(OCCCO)cc2)O[C@@H]1c1ccccc1CN=[N+]=[N-]
observed: -1.97
//
molecule: CC(C)NC(=O)[C@@]1(Cc2ccccc2I)c2ccccc2C(=O)N(Cc2ccccc2Cl)[C@H]1c1ccc(CO)cc1
observed: -0.0558
//
molecule: CCCCN1CC=CC23O[C@@H]4/C=C\CCCOC(=O)C4[C@H]2C(=O)N(CCCCCO)[C@@H]3C1=O (stereo partly drawn)
observed: 0.313

====

As shown below, each of these molecules has a reported composite z-score value.
# protocol-text: probe aEGFR binding to arrayed compounds – biochemical, biotinylated probe, 635/667 nm fluorescence, primary screen (AID 1097);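 note: probe is a biotinylated anti-EGFR antibody binding compounds printed on slides; score combines fluorescence near 667 nm and signal to noise of each spot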
# assay-setup: small-molecule microarray, higher = more signal

molecule: O=C(NC1CC1)[C@@H]1c2ccccc2C(=O)N(Cc2cc(F)cc(C(F)(F)F)c2)[C@H]1c1ccc(CO)cc1
composite z-score: -0.177
--
molecule: COC(=O)[C@]1(CCC(=O)OC(C)(C)C)N=C(c2ccc(OCCCO)cc2)O[C@@H]1c1ccccc1
composite z-score: -0.0689
--
molecule: COC(=O)[C@H](Cc1ccccc1)N[C@H](/C=C/C1CC1)[C@@H](O)Cc1ccccc1
composite z-score: -0.178
--
molecule: COC(=O)c1c2oc(c1C(=O)OC)C(=O)NC1(CCCCC1)c1cn(nn1)C[C@H](Cc1ccccc1)NC(=O)N[C@H](CO)CC2
composite z-score: -0.171
--
molecule: CC(C)(C)OC(=O)CC[C@@]1(C(=O)N2CCCCC2)N=C(c2ccc(OCCCO)cc2)O[C@@H]1c1ccccc1
composite z-score: -0.0053
--
molecule: COc1ccc([C@H]2C[C@H]3C(I)=C[C@@H]2C(=O)[C@]32CO2)cc1
composite z-score: -0.135
--
molecule: CCCCCCCCCCC(O)C1C=CC2C(=O)NC(=O)C2N1Nc1ccc(Cl)cc1Cl (stereo not drawn)
composite z-score: -0.137
--
molecule: COc1cc(CO)cc(I)c1O[C@H]1C=C(C(=O)NCCO)C[C@@H](N(C(=O)c2cc3ccccc3oc2=O)C2CCCCCC2)[C@@H]1O
composite z-score: -0.207
